experiment_description: Pharmacokinetics (plasma Cmax, AUC, Tmax, t1/2, trough concentrations)
Type: in vivo, human
experimental_context: human, plasma, oral, 50 mg, Day 7; 50 mg QD; read-out: Trough Plasma Concentration, Mean (SD)
assay_readout: concentration at 7 day (ng/mL)
Answers are plain numbers, in ng/mL.

I'd like to know its concentration at 7 day. The compound in question is CC(=O)N[C@H]1CC[C@H](NC(=O)CN2CCN(c3nncc(-c4ccc(C)cc4)n3)CC2)CC1 [Compound A HBr]
93.1

* * *

experiment_description: Pharmacokinetics (plasma Cmax, AUC, Tmax, t1/2, trough concentrations)
Format: in vivo, human
experimental_context: human, plasma, oral, 100 mg, Day 7; 100 mg QD Part 2; read-out: Trough Plasma Concentration, Median
assay_readout: concentration at 7 day (ng/mL)
One number for each entry, in ng/mL.

// lookup concentration at 7 day for CC(=O)N[C@H]1CC[C@H](NC(=O)CN2CCN(c3nncc(-c4ccc(C)cc4)n3)CC2)CC1 [Compound A HBr]
29.8

* * *

experiment_description: Pharmacokinetics (plasma Cmax, AUC, Tmax, t1/2, trough concentrations)
Assay type: in vivo, human
experimental_context: human, plasma, oral, 12.5 mg, Day 28; 12.5 mg BID; read-out: Trough Plasma Concentration, Median
assay_readout: concentration at 28 day (ng/mL)
Answers are plain numbers, in ng/mL.

Need concentration at 28 day, item `CC(=O)N[C@H]1CC[C@H](NC(=O)CN2CCN(c3nncc(-c4ccc(C)cc4)n3)CC2)CC1`
27.3

* * *

experiment_description: Pharmacokinetics (plasma Cmax, AUC, Tmax, t1/2, trough concentrations)
Type: in vivo, human
experimental_context: human, plasma, oral, 50 mg, steady state Day 28; 50 mg QD; read-out: Cmax, Mean (SD)
assay_readout: Cmax (ng/mL)
One number for each entry, in ng/mL.

Requested read-out: Cmax. Entry: `CC(=O)N[C@H]1CC[C@H](NC(=O)CN2CCN(c3nncc(-c4ccc(C)cc4)n3)CC2)CC1`
518

* * *

experiment_description: Pharmacokinetics (plasma Cmax, AUC, Tmax, t1/2, trough concentrations)
Type: in vivo, human
experimental_context: human, plasma, oral, 50 mg, steady state Day 28; 50 mg QD; read-out: AUC0-24, Mean (SD)
assay_readout: AUC(0-t) (ng·h/mL)
Numbers only, in ng·h/mL.

Tell me the measured AUC(0-t) of `CC(=O)N[C@H]1CC[C@H](NC(=O)CN2CCN(c3nncc(-c4ccc(C)cc4)n3)CC2)CC1` , please.
3390

* * *

experiment_description: Pharmacokinetics (plasma Cmax, AUC, Tmax, t1/2, trough concentrations)
Format: in vivo, human
experimental_context: human, plasma, oral, 50 mg, Day 28; 50 mg QD; read-out: Trough Plasma Concentration, Mean (SD)
assay_readout: concentration at 28 day (ng/mL)
Answers are plain numbers, in ng/mL.

Give its concentration at 28 day value. Item: `CC(=O)N[C@H]1CC[C@H](NC(=O)CN2CCN(c3nncc(-c4ccc(C)cc4)n3)CC2)CC1`
87.4

* * *

experiment_description: Pharmacokinetics (plasma Cmax, AUC, Tmax, t1/2, trough concentrations)
Type: in vivo, human
experimental_context: human, plasma, oral, 100 mg, Day 7; 100 mg QD Part 1; read-out: Trough Plasma Concentration, Mean (SD)
assay_readout: concentration at 7 day (ng/mL)
One number for each entry, in ng/mL.

Consider the compound shown here: `CC(=O)N[C@H]1CC[C@H](NC(=O)CN2CCN(c3nncc(-c4ccc(C)cc4)n3)CC2)CC1` What is its recorded concentration at 7 day?
299

* * *

experiment_description: Pharmacokinetics (plasma Cmax, AUC, Tmax, t1/2, trough concentrations)
Assay type: in vivo, human
experimental_context: human, plasma, oral; steady state Day 28; 12.5 mg QD; read-out: Tmax, Median
Source text: Pharmacokinetic endpoints of this study are PK parameters, including, of area under the plasma concentration versus time curve (AUC), maximum plasma concentration (Cmax), time to maximum concentration (Tmax), and half-life (t1/2) will be summarized descriptively for Randomization (baseline) and Study Weeks 1, 4, and 8 PK/PD Analysis Set includes all subjects in the SAF who have sufficient data available for the analysis of pharmacokinetic and pharmacodynamic measurements. […]
assay_readout: Tmax (h)
Numbers only, in h.

What does the data say about its Tmax? Entry: `CC(=O)N[C@H]1CC[C@H](NC(=O)CN2CCN(c3nncc(-c4ccc(C)cc4)n3)CC2)CC1`
1.08

* * *

experiment_description: Pharmacokinetics (plasma Cmax, AUC, Tmax, t1/2, trough concentrations)
Assay type: in vivo, human
experimental_context: human, plasma, oral, 12.5 mg, steady state Day 28; 12.5 mg QD; read-out: Cmax, Mean (SD)
assay_readout: Cmax (ng/mL)
One number for each entry, in ng/mL.

Please give the measured Cmax for this compound: `CC(=O)N[C@H]1CC[C@H](NC(=O)CN2CCN(c3nncc(-c4ccc(C)cc4)n3)CC2)CC1`
153

* * *

experiment_description: Pharmacokinetics (plasma Cmax, AUC, Tmax, t1/2, trough concentrations)
Assay type: in vivo, human
experimental_context: human, plasma, oral, 12.5 mg, Day 56; 12.5 mg BID; read-out: Trough Plasma Concentration, Geometric Mean
assay_readout: concentration at 56 day
Number first, unit second: that is the form wanted.

Which measured concentration at 56 day value corresponds to `CC(=O)N[C@H]1CC[C@H](NC(=O)CN2CCN(c3nncc(-c4ccc(C)cc4)n3)CC2)CC1` ?
0.0185 µg/mL

* * *

experiment_description: Pharmacokinetics (plasma Cmax, AUC, Tmax, t1/2, trough concentrations)
Assay type: in vivo, human
experimental_context: human, plasma, oral, 100 mg, Day 56; 100 mg QD Part 1; read-out: Trough Plasma Concentration, Median
assay_readout: concentration at 56 day (ng/mL)
One number for each entry, in ng/mL.

Report concentration at 56 day for `CC(=O)N[C@H]1CC[C@H](NC(=O)CN2CCN(c3nncc(-c4ccc(C)cc4)n3)CC2)CC1` please.
30.4

* * *

experiment_description: Pharmacokinetics (plasma Cmax, AUC, Tmax, t1/2, trough concentrations)
Type: in vivo, human
experimental_context: human, plasma, oral, 50 mg, steady state Day 28; 50 mg QD; read-out: Cmax, Median
assay_readout: Cmax (ng/mL)
Give bare numbers, in ng/mL.

GET /values?readout=Cmax&item= `CC(=O)N[C@H]1CC[C@H](NC(=O)CN2CCN(c3nncc(-c4ccc(C)cc4)n3)CC2)CC1`
488

* * *

experiment_description: Pharmacokinetics (plasma Cmax, AUC, Tmax, t1/2, trough concentrations)
Format: in vivo, human
experimental_context: human, plasma, oral, 100 mg, 100 mg QD; Cohort 1; Day 28; read-out: Steady-state AUC0-24
assay_readout: AUC(0-t)
Units required after the number.

What measured AUC(0-t) goes with `CC(=O)N[C@H]1CC[C@H](NC(=O)CN2CCN(c3nncc(-c4ccc(C)cc4)n3)CC2)CC1` ?
14900 ng·h/mL

* * *

experiment_description: Pharmacokinetics (plasma Cmax, AUC, Tmax, t1/2, trough concentrations)
Type: in vivo, human
experimental_context: human, plasma, oral, 12.5 mg, steady state Day 28; 12.5 mg BID; read-out: AUC0-24, Median
From the text: Pharmacokinetic endpoints of this study are PK parameters, including, of area under the plasma concentration versus time curve (AUC), maximum plasma concentration (Cmax), time to maximum concentration (Tmax), and half-life (t1/2) will be summarized descriptively for Randomization (baseline) and Study Weeks 1, 4, and 8 PK/PD Analysis Set includes all subjects in the SAF who have sufficient data available for the analysis of pharmacokinetic and pharmacodynamic measurements. […]
assay_readout: AUC(0-t)
Param answer (str): number followed by unit.

Any idea what AUC(0-t) was measured for CC(=O)N[C@H]1CC[C@H](NC(=O)CN2CCN(c3nncc(-c4ccc(C)cc4)n3)CC2)CC1 [Compound A HBr] ?
922 ng·h/mL

* * *

experiment_description: Pharmacokinetics (plasma Cmax, AUC, Tmax, t1/2, trough concentrations)
Type: in vivo, human
experimental_context: human, plasma, oral, 100 mg, Day 56; 100 mg QD Part 1; read-out: Trough Plasma Concentration, Mean (SD)
assay_readout: concentration at 56 day (ng/mL)
Answers are plain numbers, in ng/mL.

Consider the compound shown here: `CC(=O)N[C@H]1CC[C@H](NC(=O)CN2CCN(c3nncc(-c4ccc(C)cc4)n3)CC2)CC1` What is its recorded concentration at 56 day?
258

* * *

experiment_description: Pharmacokinetics (plasma Cmax, AUC, Tmax, t1/2, trough concentrations)
Type: in vivo, human
experimental_context: human, plasma, oral, 25 mg, Day 56; 25 mg BID; read-out: Trough Plasma Concentration, Median
Source text: Pharmacokinetic endpoints of this study are PK parameters, including, of area under the plasma concentration versus time curve (AUC), maximum plasma concentration (Cmax), time to maximum concentration (Tmax), and half-life (t1/2) will be summarized descriptively for Randomization (baseline) and Study Weeks 1, 4, and 8 PK/PD Analysis Set includes all subjects in the SAF who have sufficient data available for the analysis of pharmacokinetic and pharmacodynamic measurements. […]
assay_readout: concentration at 56 day

State the recorded concentration at 56 day for this entry: `CC(=O)N[C@H]1CC[C@H](NC(=O)CN2CCN(c3nncc(-c4ccc(C)cc4)n3)CC2)CC1`
32.3 ng/mL
